# SYSTEM_NAME: 5-HT2C (Homo sapiens)
# Construct: purchased NIMH Psychoactive Drug Screening Program (PDSP)
# Sequence (P28335 33-458): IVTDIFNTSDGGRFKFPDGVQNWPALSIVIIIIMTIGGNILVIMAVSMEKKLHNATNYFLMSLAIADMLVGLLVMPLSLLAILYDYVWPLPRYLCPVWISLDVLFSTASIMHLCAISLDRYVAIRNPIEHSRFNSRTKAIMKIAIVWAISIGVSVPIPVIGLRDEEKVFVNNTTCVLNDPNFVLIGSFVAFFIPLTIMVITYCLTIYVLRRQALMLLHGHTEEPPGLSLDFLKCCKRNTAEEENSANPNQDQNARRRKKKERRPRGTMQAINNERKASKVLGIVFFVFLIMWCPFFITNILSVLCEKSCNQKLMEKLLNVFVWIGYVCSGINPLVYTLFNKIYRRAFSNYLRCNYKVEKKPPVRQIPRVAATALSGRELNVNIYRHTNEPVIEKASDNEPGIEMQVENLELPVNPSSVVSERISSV
# ASSAY_DETAILS: PDSP primary binding 5-HT2C
# COND: 1.5 h; primary binding, 10,000 nM; last figure of the line = mean of the 4 before it; read-out: 5-HT2C, PDSP raw data, mean
OBSERVABLE: inhibition at 10 µM (%)
Could you give me the number in %? Just the number is fine.

{"GIVEN_SMILES": "CCc1noc(-c2ncn3c2CN=C(c2ccccc2F)c2cc(C4CC4)ccc2-3)n1", "RESULT_UNIT": "%", "MEASURED_NUMBER": 24.7}
{"GIVEN_SMILES": "C#Cc1ccc2c(c1)C(c1ccccc1F)=N[C@H](C)c1c(C(=S)N(C)C)ncn1-2", "RESULT_UNIT": "%", "MEASURED_NUMBER": 18}

Entry C#Cc1ccc2c(c1)C(c1ccccn1)=N[C@@H](C)c1c(C(=O)N(C)C)ncn1-2 , tested on 5-HT2C (Homo sapiens), has a reported inhibition at 10 µM of -12.3

Entry C#Cc1ccc2c(c1)C(c1ccccc1Cl)=N[C@H](C)c1c(C(=O)NC)ncn1-2 , tested on 5-HT2C (Homo sapiens), has a reported inhibition at 10 µM of -14.2

Entry C[C@H]1N=C(c2ccccc2F)c2cc(Cl)ccc2-n2cnc(-c3nc(C4CC4)no3)c21 , tested on 5-HT2C (Homo sapiens), has a reported inhibition at 10 µM of 7.18

Entry C[C@H]1N=C(c2ccccc2F)c2cc(-c3ccccc3)ccc2-n2cnc(C(=O)N(C)C)c21 , tested on 5-HT2C (Homo sapiens), has a reported inhibition at 10 µM of 18

Entry CCc1noc(-c2ncn3c2[C@@H](C)N=C(c2ccccc2F)c2cc(Cl)ccc2-3)n1 , tested on 5-HT2C (Homo sapiens), has a reported inhibition at 10 µM of 13.9

Entry CCc1noc(-c2ncn3c2[C@@H](C)N=C(c2ccccc2F)c2cc(C4CC4)ccc2-3)n1 , tested on 5-HT2C (Homo sapiens), has a reported inhibition at 10 µM of 3.53

* * *

# SYSTEM_NAME: H2 (Homo sapiens, UniProt P25021)
# Construct: purchased NIMH Psychoactive Drug Screening Program (PDSP)
# Sequence (P25021 whole entry): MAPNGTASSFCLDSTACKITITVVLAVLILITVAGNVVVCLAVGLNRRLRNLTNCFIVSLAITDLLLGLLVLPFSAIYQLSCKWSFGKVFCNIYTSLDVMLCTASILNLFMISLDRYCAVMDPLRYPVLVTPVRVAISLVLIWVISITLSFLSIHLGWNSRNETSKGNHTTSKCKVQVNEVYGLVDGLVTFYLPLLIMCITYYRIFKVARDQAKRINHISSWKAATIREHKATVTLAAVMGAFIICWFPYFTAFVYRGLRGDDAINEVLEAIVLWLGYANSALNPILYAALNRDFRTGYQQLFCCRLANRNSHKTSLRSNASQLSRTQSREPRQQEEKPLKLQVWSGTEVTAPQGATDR
# ASSAY_DETAILS: PDSP primary binding H2
# COND: primary binding, 10,000 nM; last figure of the line = mean of the 4 before it; read-out: H2, PDSP raw data, mean
Below: a set of entries, each annotated with reported inhibition at 10 µM.
Could you give me the number in %? Just the number is fine.

{"GIVEN_SMILES": "C#Cc1ccc2c(c1)C(c1ccccn1)=N[C@@H](C)c1c(C(=O)N(C)C)ncn1-2", "MEASURED_NUMBER": -12.1}
{"GIVEN_SMILES": "C#Cc1ccc2c(c1)C(c1ccccc1Cl)=N[C@H](C)c1c(C(=O)NC)ncn1-2", "MEASURED_NUMBER": -2.07}
{"GIVEN_SMILES": "C#Cc1ccc2c(c1)C(c1ccccn1)=N[C@@H](C)c1c(C(=O)NC)ncn1-2", "MEASURED_NUMBER": -23.3}
{"GIVEN_SMILES": "CCc1noc(-c2ncn3c2[C@@H](C)N=C(c2ccccc2F)c2cc(-c4ccccc4)ccc2-3)n1", "MEASURED_NUMBER": -10.1}
{"GIVEN_SMILES": "C[C@H]1N=C(c2ccccc2F)c2cc(-c3ccccc3)ccc2-n2cnc(C(=O)N(C)C)c21", "MEASURED_NUMBER": -1.42}
{"GIVEN_SMILES": "C#Cc1ccc2c(c1)C(c1ccccc1F)=N[C@H](C)c1c(C(=S)N(C)C)ncn1-2", "MEASURED_NUMBER": -1.42}
{"GIVEN_SMILES": "C[C@H]1N=C(c2ccccc2F)c2cc(Cl)ccc2-n2cnc(-c3nc(C4CC4)no3)c21", "MEASURED_NUMBER": 6.81}

Shift focus to the following entry.
Entry CC(C)c1noc(-c2ncn3c2[C@@H](C)N=C(c2ccccc2F)c2cc(Cl)ccc2-3)n1 , tested on H2 (Homo sapiens, UniProt P25021), has a reported inhibition at 10 µM of 1.66

* * *

# SYSTEM_NAME: 5-HT5A (Homo sapiens, UniProt P47898)
# Construct: purchased NIMH Psychoactive Drug Screening Program (PDSP)
# Sequence (P47898 whole entry): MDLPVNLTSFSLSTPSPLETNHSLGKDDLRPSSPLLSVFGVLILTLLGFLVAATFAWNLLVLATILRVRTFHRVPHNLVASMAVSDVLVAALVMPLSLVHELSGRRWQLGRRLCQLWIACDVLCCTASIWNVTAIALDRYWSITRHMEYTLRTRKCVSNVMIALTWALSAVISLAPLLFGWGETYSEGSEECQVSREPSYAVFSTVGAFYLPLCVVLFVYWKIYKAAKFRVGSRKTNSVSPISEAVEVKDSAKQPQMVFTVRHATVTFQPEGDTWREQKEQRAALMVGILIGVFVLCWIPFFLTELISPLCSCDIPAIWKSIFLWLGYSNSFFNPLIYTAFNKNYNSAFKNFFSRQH
# ASSAY_DETAILS: PDSP primary binding 5-HT5A
# COND: 1.5 h; primary binding, 10,000 nM; last figure of the line = mean of the 4 before it; read-out: 5-HT5A, PDSP raw data, mean
OBSERVABLE: inhibition at 10 µM (%)
Could you give me the number in %? Just the number is fine.

{"GIVEN_SMILES": "CCc1noc(-c2ncn3c2CN=C(c2ccccc2F)c2cc(C4CC4)ccc2-3)n1", "inhibition at 10 µM, %": 5.08}
{"GIVEN_SMILES": "C#Cc1ccc2c(c1)C(c1ccccn1)=N[C@@H](C)c1c(C(=O)NC)ncn1-2", "inhibition at 10 µM, %": -2.76}
{"GIVEN_SMILES": "C#Cc1ccc2c(c1)C(c1ccccn1)=N[C@@H](C)c1c(C(=O)N(C)C)ncn1-2", "inhibition at 10 µM, %": -7.46}

Shift focus to the following entry.
Briefly, inhibition at 10 µM measured for C#Cc1ccc2c(c1)C(c1ccccc1Cl)=N[C@H](C)c1c(C(=O)N(C)CC)ncn1-2 : -3.73

* * *

# SYSTEM_NAME: H1 (Homo sapiens, UniProt P35367)
# Construct: purchased NIMH Psychoactive Drug Screening Program (PDSP)
# Sequence (P35367 whole entry): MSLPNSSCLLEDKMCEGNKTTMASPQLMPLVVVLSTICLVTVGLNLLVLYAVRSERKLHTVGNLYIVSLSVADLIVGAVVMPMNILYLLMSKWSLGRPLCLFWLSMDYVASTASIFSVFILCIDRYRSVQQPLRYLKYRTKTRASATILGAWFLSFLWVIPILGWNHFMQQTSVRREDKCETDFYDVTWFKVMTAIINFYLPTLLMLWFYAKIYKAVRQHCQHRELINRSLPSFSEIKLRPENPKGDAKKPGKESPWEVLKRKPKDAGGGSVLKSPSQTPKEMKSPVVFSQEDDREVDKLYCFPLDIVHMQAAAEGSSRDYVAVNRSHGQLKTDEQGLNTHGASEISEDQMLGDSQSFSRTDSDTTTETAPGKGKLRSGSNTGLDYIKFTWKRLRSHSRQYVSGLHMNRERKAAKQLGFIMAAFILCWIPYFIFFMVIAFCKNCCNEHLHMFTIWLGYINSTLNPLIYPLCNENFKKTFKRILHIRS
# ASSAY_DETAILS: PDSP primary binding H1
# COND: primary binding, 10,000 nM; last figure of the line = mean of the 4 before it; read-out: H1, PDSP raw data, mean
Below: a set of entries, each annotated with reported inhibition at 10 µM.
Could you give me the number in %? Just the number is fine.

{"COMPOUND": "C#Cc1ccc2c(c1)C(c1ccccc1Cl)=N[C@H](C)c1c(C(=O)NC)ncn1-2 [Compound 21]", "SYSTEM_NAME": "H1 (Homo sapiens, UniProt P35367)", "inhibition at 10 µM / %": -9.7}

Briefly, inhibition at 10 µM measured for C#Cc1ccc2c(c1)C(c1ccccc1F)=N[C@H](C)c1c(C(=S)N(C)C)ncn1-2 [Compound 33] : -10.4

Briefly, inhibition at 10 µM measured for C[C@H]1N=C(c2ccccc2F)c2cc(Cl)ccc2-n2cnc(-c3nc(C4CC4)no3)c21 [Compound 38] : 58.4

Briefly, inhibition at 10 µM measured for C[C@H]1N=C(c2ccccc2F)c2cc(-c3ccccc3)ccc2-n2cnc(C(=O)N(C)C)c21 [Compound 5] : -10.4

* * *

# SYSTEM_NAME: Alpha2A (Homo sapiens, UniProt P08913)
# Construct: purchased NIMH Psychoactive Drug Screening Program (PDSP)
# Sequence (P08913 whole entry): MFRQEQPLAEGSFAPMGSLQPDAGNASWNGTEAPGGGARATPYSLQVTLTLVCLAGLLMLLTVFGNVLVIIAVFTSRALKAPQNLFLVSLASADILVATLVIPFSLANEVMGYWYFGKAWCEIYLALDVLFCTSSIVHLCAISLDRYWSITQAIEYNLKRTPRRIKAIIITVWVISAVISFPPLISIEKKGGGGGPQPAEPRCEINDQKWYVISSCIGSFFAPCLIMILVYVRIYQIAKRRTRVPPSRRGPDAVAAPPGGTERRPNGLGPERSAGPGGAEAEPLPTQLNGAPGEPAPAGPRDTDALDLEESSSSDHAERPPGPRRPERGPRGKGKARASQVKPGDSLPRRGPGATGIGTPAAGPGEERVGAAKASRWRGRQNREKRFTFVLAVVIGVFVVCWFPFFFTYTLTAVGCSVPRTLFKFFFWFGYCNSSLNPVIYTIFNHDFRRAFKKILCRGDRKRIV
# ASSAY_DETAILS: PDSP primary binding Alpha2A
# COND: 1.5 h; primary binding, 10,000 nM; last figure of the line = mean of the 4 before it; read-out: Alpha2A, PDSP raw data, mean
OBSERVABLE: inhibition at 10 µM

Check out these entries, answers already filled in.
{"COMPOUND": "C[C@H]1N=C(c2ccccc2F)c2cc(-c3ccccc3)ccc2-n2cnc(C(=O)N(C)C)c21 [Compound 5]", "inhibition at 10 µM": "5.99%"}
{"COMPOUND": "C#Cc1ccc2c(c1)C(c1ccccc1Cl)=N[C@H](C)c1c(C(=O)N(C)CC)ncn1-2 [Compound 29]", "inhibition at 10 µM": "7.96%"}
{"COMPOUND": "CCc1noc(-c2ncn3c2[C@@H](C)N=C(c2ccccc2F)c2cc(-c4ccccc4)ccc2-3)n1 [Compound 35]", "inhibition at 10 µM": "34.5%"}
{"COMPOUND": "C#Cc1ccc2c(c1)C(c1ccccc1Cl)=N[C@H](C)c1c(C(=O)NC)ncn1-2 [Compound 21]", "inhibition at 10 µM": "-1.1%"}
{"COMPOUND": "CC(C)c1noc(-c2ncn3c2[C@@H](C)N=C(c2ccccc2F)c2cc(Cl)ccc2-3)n1 [Compound 37]", "inhibition at 10 µM": "22.8%"}

Briefly, inhibition at 10 µM measured for CCc1noc(-c2ncn3c2CN=C(c2ccccc2F)c2cc(C4CC4)ccc2-3)n1 [Compound 44] : 14.4%

Briefly, inhibition at 10 µM measured for C#Cc1ccc2c(c1)C(c1ccccn1)=N[C@@H](C)c1c(C(=O)NC)ncn1-2 [Compound 23] : 5.8%

Briefly, inhibition at 10 µM measured for C#Cc1ccc2c(c1)C(c1ccccn1)=N[C@@H](C)c1c(C(=O)N(C)C)ncn1-2 [Compound 31] : -7.15%

Briefly, inhibition at 10 µM measured for CCc1noc(-c2ncn3c2[C@@H](C)N=C(c2ccccc2F)c2cc(Cl)ccc2-3)n1 [Compound 36] : -14.4%

Briefly, inhibition at 10 µM measured for C#Cc1ccc2c(c1)C(c1ccccc1F)=N[C@H](C)c1c(C(=S)N(C)C)ncn1-2 [Compound 33] : 5.99%

Briefly, inhibition at 10 µM measured for CCc1noc(-c2ncn3c2[C@@H](C)N=C(c2ccccc2F)c2cc(C4CC4)ccc2-3)n1 [Compound 46] : 29.2%

Briefly, inhibition at 10 µM measured for C[C@H]1N=C(c2ccccc2F)c2cc(Cl)ccc2-n2cnc(-c3nc(C4CC4)no3)c21 [Compound 38] : 15.6%
